Numbers sourced from patent US20250304700A1.

Biological target: T1, human BDCA2 ectodomain (Homo sapiens, UniProt Q8WTT0)
T1 construct: huBDCA2 ectodomain: residues 257-425 above (underlined); murine IgG2a Fc (with G4S linker) (N, cleaved yes); made in house
T1 sequence (Q8WTT0 45-213): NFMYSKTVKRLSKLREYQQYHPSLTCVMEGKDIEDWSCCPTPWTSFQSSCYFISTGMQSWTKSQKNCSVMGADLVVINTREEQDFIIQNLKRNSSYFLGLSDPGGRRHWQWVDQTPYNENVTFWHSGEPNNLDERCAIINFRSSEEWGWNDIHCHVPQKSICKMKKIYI
Assay: Octet binding of mAbs on anti-human Fc tips to monomeric huBDCA2
Details: Example 5, conditioned medium, hu24F4 variants
Below, each entry is listed alongside its reported kdis.
Hi! Could you send only the number? It should be in s⁻¹, unit omitted.

// known answers, use as guide
// kdis lookup, key: H0/L1: hu24F4 variant, heavy chain version H0 (SEQ ID NO: 40), light chain version L1 (SEQ ID NO: 56) (antibody, V domains shown) VH: EVQLVESGGGLVKPGGSLRLSCAASGFTFSTYTMSWVRQAPGKGLEWVSAISGSGGSTYYADSVKGRFTISRDNAKNSLYLQMNSLRAEDTAVYYCARDIYYNYGAWFAYWGQGTLVTVSS VL: DIQLTQSPSSLSASVGDRVTITCKASQSVDYDGDSYMNWYQQKPGKAPKLLIYAASTLESGVPSRFSGSGSGTDFTLTISSLQPEDFATYYCQQSNEDPRTFGQGTKVEIK
9.5e-06

Next: H3/L1: hu24F4 variant, heavy chain version H3 (SEQ ID NO: 46), light chain version L1 (antibody, V domains shown) VH: EVQLVESGGGLVKPGGSLRLSCAASGFTFSTYTMSWVRQAPGKGLEWVSTISPGDSFGYYYPDSVQGRFTISRDNAKNSLYLQMNSLRAEDTAVYYCARDIYYNYGAWFAYWGQGTLVTVSS VL: DIQLTQSPSSLSASVGDRVTITCKASQSVDYDGDSYMNWYQQKPGKAPKLLIYAASTLESGVPSRFSGSGSGTDFTLTISSLQPEDFATYYCQQSNEDPRTFGQGTKVEIK
0.00586

Turning now to a further molecule:
// kdis lookup, key: H2/L1: hu24F4 variant, heavy chain version H2 (SEQ ID NO: 44), light chain version L1 (antibody, V domains shown) VH: EVQLVESGGGLVKPGGSLRLSCAASGFTFSTYTMSWVRQAPGKGLEWVSTISPGDSSTIYYADSVKGRFTISRDNAKNSLYLQMNSLRAEDTAVYYCARDIYYNYGAWFAYWGQGTLVTVSS VL: DIQLTQSPSSLSASVGDRVTITCKASQSVDYDGDSYMNWYQQKPGKAPKLLIYAASTLESGVPSRFSGSGSGTDFTLTISSLQPEDFATYYCQQSNEDPRTFGQGTKVEIK
3.35e-06
